Entry source: patent US20240270821A1

Target: Pro-Link-tagged Human GLP-1R (human) (UniProt P43220)
Sequence (P43220 24-463): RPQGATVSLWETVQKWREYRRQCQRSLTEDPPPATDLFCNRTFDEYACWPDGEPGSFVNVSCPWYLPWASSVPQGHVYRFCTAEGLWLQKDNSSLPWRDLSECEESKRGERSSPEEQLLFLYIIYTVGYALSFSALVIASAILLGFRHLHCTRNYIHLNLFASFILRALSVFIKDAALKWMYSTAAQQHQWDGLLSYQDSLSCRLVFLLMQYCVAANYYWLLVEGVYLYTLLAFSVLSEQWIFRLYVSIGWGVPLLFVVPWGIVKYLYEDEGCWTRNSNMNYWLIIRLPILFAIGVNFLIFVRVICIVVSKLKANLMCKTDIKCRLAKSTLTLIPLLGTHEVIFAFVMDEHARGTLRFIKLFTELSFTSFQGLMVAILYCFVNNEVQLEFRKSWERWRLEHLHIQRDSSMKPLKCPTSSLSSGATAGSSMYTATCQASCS
Assay: cell-based or functional assay
Starred links: 1 amine or outer side, 2 acyl side, 3 side chain; linkers in the order of their positions; H or OH if unused. Non-standard residues stand in square brackets, D forms with d. Groups on a side chain read outwards from the residue. No end group written: not given here. *: point of attachment. C20 diacid = O=C(O)CCCCCCCCCCCCCCCCCCC(=O)*; αMePhe(2-F) = C[C@](N)(Cc1ccccc1F)C(=O)O; γGlu = O=C(O)[C@H](CCC(=O)[*:2])N[*:1]; NMeY = CN[C@@H](Cc1ccc(O)cc1)C(=O)O; αMeF = C[C@](N)(Cc1ccccc1)C(=O)O; αMeL = CC(C)C[C@](C)(N)C(=O)O; AEEA = NCCOCCOCC(=O)O; Aib = CC(C)(N)C(=O)O
We begin with a simple list: items and their reported hGLP1R β-arrestin Rel EC50.

| binder | hGLP1R β-arrestin Rel EC50 |
| --- | --- |
| YXQGTFTSDYSIXLDKKAAXAFIEYLLEGGPSSGEPPPSEG (synthetic construct; SITE 2: note = 2-Aminoisobutyric Acid; SITE 13: note = alpha-methyl-leucine; SITE 17: note = Lysine is chemically modified through conjugation of the epsilon-amino group of the Lysine side chain with (2-[2-(2-Amino-ethoxy)-ethoxy]-acetyl)2-(gamma-Glu)-CO-(CH2 )18-CO2H; SITE 20:) [Example 294] | 27.7 nM |
| [NMeY][Aib]QGT[αMeF]TSDYSILLDKQAAK([AEEA-AEEA-γGlu-C20 diacid])AFVQWLIAGGPSSGEPPPSEG-NH2 [Example 301] | 13.2 nM |
| HXQGTXTSDYSILLDKKAAXAFIEYLIEAGPSSGEPPPSEG (synthetic construct; SITE 2: note = 2-Aminoisobutyric Acid; SITE 6: note = alpha-methyl-2-fluoro-L-phenylalanine; SITE 17: note = Lysine is chemically modified through conjugation of the epsilon-amino group of the Lysine side chain with (2-[2-(2-Amino-ethoxy)-ethoxy]-acetyl)-(gamma-Glu)-CO-(CH2) 18-) [Example 298] | 3.29 nM |
| Y[Aib]QGTFTSDYSI[αMeL]LDKK([AEEA-γGlu-C20 diacid])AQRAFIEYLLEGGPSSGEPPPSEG-NH2 (not fully specified) [Example 289] | 5.96 nM |
| Y[Aib]QGT[αMePhe(2-F)]TSDYSILLDKIAQK([AEEA-γGlu-C20 diacid])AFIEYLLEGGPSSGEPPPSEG-NH2 [Example 293] | 11.9 nM |
| YXQGTFTSDFSIXLDKKAQXAFIEYLLEGGPSSGEPPPSEG (synthetic construct; SITE 2: note = 2-Aminoisobutyric Acid; SITE 13: note = alpha-methyl-leucine; SITE 17: note = Lysine is chemically modified through conjugation of the epsilon-amino group of the Lysine side chain with (2-[2-(2-Amino-ethoxy)-ethoxy]-acetyl)-(gamma-Glu)-CO-(CH2) 18-CO2H; SITE 20: n) [Example 288] | 16.3 nM |
| Y[Aib]QGTFTSDYSI[αMeL]LDKQAAKAFVEWLLAGGPSSGEPPPSEG-NH2 (not fully specified (residue 20)) [Example 305] | 23.3 nM |
| YXQGTFTSDFSKXLDKKAQXAFIEYLLAGGPSSGEPPPSSE (synthetic construct; SITE 2: note = 2-Aminoisobutyric Acid; SITE 13: note = alpha-methyl-leucine; SITE 17: note = Lysine is chemically modified through conjugation of the epsilon-amino group of the Lysine side chain with (2-[2-(2-Amino-ethoxy)-ethoxy]-acetyl)2-(gamma-Glu)-CO-(CH2 )18-CO2H; SITE 20:) [Example 5] | > 10000 nM |
| Y[Aib]QGT[αMePhe(2-F)]TSDYSKILDKIAQK([AEEA-γGlu-C20 diacid])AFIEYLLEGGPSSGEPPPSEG-NH2 [Example 311] | 19.2 nM |
| HXQGTXTSDYSILLDKKAAXAFIEYLIETGPSSGEPPPSEG (synthetic construct; SITE 2: note = 2-Aminoisobutyric Acid; SITE 6: note = alpha-methyl-2-fluoro-L-phenylalanine; SITE 17: note = Lysine is chemically modified through conjugation of the epsilon-amino group of the Lysine side chain with (2-[2-(2-Amino-ethoxy)-ethoxy]-acetyl)-(gamma-Glu)-CO-(CH2) 18-) [Example 290] | 3.94 nM |
| Y[Aib]QGT[αMePhe(2-F)]TSDYSKLLDKIAQK([AEEA-γGlu-C20 diacid])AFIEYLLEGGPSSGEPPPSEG-NH2 [Example 295] | 16.4 nM |
